Assign IC50 to each entry below.
# Tested on: LNCaP_Vancouver prostate cells
# PROTOCOL_SUMMARY: In Vitro LNCaP Vancouver Prostate Cell Proliferation Assay in Lipid Reduced Medium
# Format: cell-based
# STATED_CONDITIONS: Prostate cell; 10% lipid reduced serum, 96 h, ATP-glow luminescence; read-out: pIC50 LNCaP_Vancouver prostate cell (converted)
Please answer in the form of a number followed by its unit of measurement.

> print(dat)
                    structure.smiles.string  measured
1  CC1(C)N=C(c2ccc(-c3ccc4cccnc4c3)cc2F)N(C[C@@H]2CCN(C(=O)C3CC3)C2)C1=O    0.2 µM
2  CC1(C)N=C(c2ccc(-c3nc4ccccc4[nH]3)cc2F)N(C[C@@H]2CCN(C(=O)C3CC3)C2)C1=O   5.01 µM
3  CC1(C)N=C(c2ccc(-c3ccc(-c4ccncc4)cc3)cc2)N(CC2CN(C(=O)C3CC3)C2)C1=O   3.39 µM
4  Cn1ncc2cc(-c3ccc(C4=NC(C)(C)C(=O)N4CC4CN(C(=O)C5(O)CC5)C4)c(F)c3)ccc21   3.09 µM

Query molecule follows.
response.value for CC1(C)N=C(c2ccc(-c3ccc4cc(F)ccc4c3)cc2F)N(C[C@@H]2CCN(C(=O)C3CC3)C2)C1=O (field: IC50) = 0.692 µM

---

# Test system: LNCaP_Vancouver prostate cells
# PROTOCOL_SUMMARY: In Vitro LNCaP Vancouver Prostate Cell Proliferation Assay in Lipid Reduced Medium
# Type: cell-based
# STATED_CONDITIONS: Prostate cell; 10% lipid reduced serum, 96 h, ATP-glow luminescence; read-out: pIC50 LNCaP_Vancouver prostate cell (converted)
# Description: LNCaP_Vancouver prostate cells were obtained from the Vancouver Prostate Cancer Centre. The next day 10 μl of test compound/DMSO diluted in medium was added (3E-5M, 1E-5M, 3E-6M,1E-6M, 3E-7M, 1E-7M, 3E-8M, 1E-8M final concentration). Compounds were tested in duplicate. After 96 h incubation at 37° C., 5% CO2 25 μl ATP-glow mix was added. The plate was incubated for 30 min at 37° C. and luminescence was measured with the Envision. […] pIC50 values were calculated as follows. […]
Kindly state IC50 for each of the entries shown.

# example entries with known answers
> print(dat)
                    structure.smiles.string  reported.property  measured
1  CC1(C)N=C(c2ccc(-c3ccc4cc(F)ccc4c3)cc2)N(CC2CN(C(=O)C3CC3)C2)C1=O               IC50  ~2820 nM
2  CC1(C)N=C(c2ccc(-c3ccc(-c4ccncc4)cc3)cc2F)N(CC2CN(C(=O)C3CC3)C2)C1=O               IC50    813 nM
3  Cn1ncc2cc(-c3ccc(C4=NC(C)(C)C(=O)N4CC4CN(C(=O)C5CC5)C4)c(F)c3)ccc21               IC50   4680 nM

For each of the compounds below, state IC50.
1. CC1(C)N=C(c2ccc(-c3c[nH]c4ccccc34)cc2)N(C[C@@H]2CCN(C(=O)C3CC3)C2)C1=O
2. CC1(C)N=C(c2ccc(-c3cccc4ncccc34)cc2)N(C[C@@H]2CCN(C(=O)C3CC3)C2)C1=O

## Output
1. 1260 nM
2. 912 nM

Batch of 4 compounds: report IC50 for each.
1. Cn1cc(-c2ccc(-c3ccc(C4=NC(C)(C)C(=O)N4CC4CN(C(=O)C5CC5)C4)cc3)cc2)cn1
2. CC1(C)N=C(c2ccc(-c3ccc4cccc(F)c4c3)cc2F)N(CC2CN(C(=O)C3CC3)C2)C1=O
3. CC1(C(=O)N2CC(CN3C(=O)C(C)(C)N=C3c3ccc(-c4ccc5cc(F)ccc5c4)cc3F)C2)CC1
4. CC1(C)N=C(c2ccc(-c3ccc4cccnc4c3)cc2F)N(CC2CN(C(=O)C3CC3)C2)C1=O

## Output
1: 8910 nM; 2: 120 nM; 3: 295 nM; 4: 269 nM

Summary for this compound, CC1(C)N=C(c2ccc(-c3ccc4cc(F)ccc4c3)cc2F)N(CC2CN(C(=O)C3CC3)C2)C1=O : IC50 is 407 nM

---

# Test system: LNCaP_Vancouver prostate cells
# PROTOCOL_SUMMARY: In Vitro LNCaP Vancouver Prostate Cell Proliferation Assay in Lipid Reduced Medium
# Type: cell-based
# STATED_CONDITIONS: Prostate cell; 10% lipid reduced serum, 96 h, ATP-glow luminescence; read-out: pIC50 LNCaP_Vancouver prostate cell (converted)
# Protocol: LNCaP_Vancouver prostate cells were obtained from the Vancouver Prostate Cancer Centre. The next day 10 μl of test compound/DMSO diluted in medium was added (3E-5M, 1E-5M, 3E-6M,1E-6M, 3E-7M, 1E-7M, 3E-8M, 1E-8M final concentration). Compounds were tested in duplicate. After 96 h incubation at 37° C., 5% CO2 25 μl ATP-glow mix was added. The plate was incubated for 30 min at 37° C. and luminescence was measured with the Envision. […] pIC50 values were calculated as follows. […]
REPORTED_PROPERTY: IC50 (µM)
Answers are plain numbers, in µM.

These solved cases illustrate the format of a correct answer.
> print(dat)
                                   molecule                  assayed.system  reported.property  measured
1  Cn1cc(-c2ccc(-c3ccc(C4=NC(C)(C)C(=O)N4CC4CN(C(=O)C5CC5)C4)c(F)c3)cc2)cn1  LNCaP_Vancouver prostate cells               IC50      2.04
2  CC1(C)N=C(c2ccc(-c3cccc4ncccc34)cc2F)N(C[C@@H]2CCN(C(=O)C3CC3)C2)C1=O  LNCaP_Vancouver prostate cells               IC50      3.55

Memo: COCC1(C)N=C(c2ccc(-c3ccc4occc4c3)cc2)N(C[C@@H]2CCN(C(=O)C3CC3)C2)C1=O (mixture of isomers) , reported IC50: 2.57
